- Measurement target: T1, CD66c (Cluster of Differentiation 66c) on cells (UniProt P40199 35-320, limits assumed)
- T1 construct: whole, on cells; also called CEACAM6; CEACAM 6
- T1 sequence (looked up): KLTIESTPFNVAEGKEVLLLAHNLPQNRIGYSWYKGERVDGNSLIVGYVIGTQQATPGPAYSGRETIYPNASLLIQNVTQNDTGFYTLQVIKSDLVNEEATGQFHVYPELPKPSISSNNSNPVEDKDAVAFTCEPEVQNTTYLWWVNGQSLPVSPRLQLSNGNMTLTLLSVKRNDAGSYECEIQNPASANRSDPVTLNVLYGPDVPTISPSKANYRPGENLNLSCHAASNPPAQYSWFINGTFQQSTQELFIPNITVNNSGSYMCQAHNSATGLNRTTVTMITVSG
- Assay overview: flow cytometry on CD66c-positive A549 cells, FITC anti-human IgG
Test readout: % (% gated × mean), against the chimeric antibody (%)
Just the number in %, nothing appended.

These recorded examples may help you get a feel for the data.
recombinant humanized anti-CD66c antibody Protein ID 2938 (Vk5 + VH7) (antibody, human IgG1, V domains shown, also called hu 2938) VH: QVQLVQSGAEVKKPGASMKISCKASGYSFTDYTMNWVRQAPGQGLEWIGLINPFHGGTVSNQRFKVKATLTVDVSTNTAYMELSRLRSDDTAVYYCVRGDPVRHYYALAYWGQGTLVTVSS VL: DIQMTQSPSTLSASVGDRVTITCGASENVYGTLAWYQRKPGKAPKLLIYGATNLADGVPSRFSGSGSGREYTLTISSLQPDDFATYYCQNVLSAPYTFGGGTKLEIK    96
recombinant humanized anti-CD66c antibody Protein ID 3058 (Vk8 + VH11) (antibody, human IgG1, V domains shown, also called hu 3058; #86) VH: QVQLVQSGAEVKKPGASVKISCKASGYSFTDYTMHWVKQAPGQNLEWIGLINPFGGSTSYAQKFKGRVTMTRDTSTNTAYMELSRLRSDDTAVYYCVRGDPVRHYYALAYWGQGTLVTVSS VL: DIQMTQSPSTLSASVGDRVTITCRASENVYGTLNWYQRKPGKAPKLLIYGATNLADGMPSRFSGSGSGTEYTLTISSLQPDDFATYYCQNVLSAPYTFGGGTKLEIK    103
recombinant humanized anti-CD66c antibody Protein ID 3043 (Vk8 + VH6) (antibody, V domains shown, also called hu 3043; #71) VH: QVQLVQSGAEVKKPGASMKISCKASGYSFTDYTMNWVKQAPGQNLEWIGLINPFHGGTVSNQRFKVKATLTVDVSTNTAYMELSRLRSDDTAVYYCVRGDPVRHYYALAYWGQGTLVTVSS VL: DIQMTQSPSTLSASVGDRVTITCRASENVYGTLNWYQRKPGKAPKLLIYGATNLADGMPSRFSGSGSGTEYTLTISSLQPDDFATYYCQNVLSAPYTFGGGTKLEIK    105
recombinant humanized anti-CD66c antibody Protein ID 3007 (Vk7 + VH6) (antibody, human IgG1, V domains shown, also called hu 3007; #43) VH: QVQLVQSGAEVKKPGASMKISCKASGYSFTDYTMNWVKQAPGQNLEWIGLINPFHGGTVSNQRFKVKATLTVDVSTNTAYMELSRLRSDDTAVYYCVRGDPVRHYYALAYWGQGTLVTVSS VL: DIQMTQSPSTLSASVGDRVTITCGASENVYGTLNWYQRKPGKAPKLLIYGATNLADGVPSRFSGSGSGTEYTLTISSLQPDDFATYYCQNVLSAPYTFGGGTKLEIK    88.8
recombinant humanized anti-CD66c antibody Protein ID 3019 (Vk7 + VH10) (antibody, human IgG1, V domains shown, also called hu 3019; #51) VH: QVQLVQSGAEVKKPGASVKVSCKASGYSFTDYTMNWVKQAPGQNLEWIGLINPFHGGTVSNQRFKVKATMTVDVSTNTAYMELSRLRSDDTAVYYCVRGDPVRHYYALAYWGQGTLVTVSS VL: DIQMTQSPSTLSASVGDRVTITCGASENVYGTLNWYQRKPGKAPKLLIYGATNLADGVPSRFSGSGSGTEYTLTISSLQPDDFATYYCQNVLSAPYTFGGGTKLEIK    86.9

Continue with the next binder.
Enquiry: Field request: % (% gated × mean), against the chimeric antibody | item: recombinant humanized anti-CD66c antibody Protein ID 3046 (Vk8 + VH7) (antibody, human IgG1, V domains shown, also called #74) VH: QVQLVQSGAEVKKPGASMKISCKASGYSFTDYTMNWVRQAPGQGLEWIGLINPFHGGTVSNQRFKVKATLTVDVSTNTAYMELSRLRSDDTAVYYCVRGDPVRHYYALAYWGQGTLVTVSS VL: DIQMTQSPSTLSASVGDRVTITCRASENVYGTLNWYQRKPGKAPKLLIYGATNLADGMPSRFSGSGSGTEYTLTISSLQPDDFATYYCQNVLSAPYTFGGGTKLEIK
Return: 82.2
